Recorded TGI, one value per entry.
# System: SR leukemia
# test-protocol: NCI tumour cell line growth inhibition, 48 h

molecule	study-target	TGI
COc1cc2cc(C(=O)N3CC(CCl)c4c3cc(N(C)C)c3ccccc43)[nH]c2c(OC)c1OC (centres undefined)	SR leukemia	< 0.01 µM
CC[C@@]1(O)C(=O)OCc2c1cc1n(c2=O)Cc2c-1nc1ccccc1c2/C=N\NC(=O)C(N)Cc1cnc[nH]1 (some centres undefined)	SR leukemia	0.387 µM
COc1ccc(-c2csc(NC(=O)N3CCN(c4cc5c(cc4F)c(=O)c(C(=O)O)cn5C4CC4)CC3)n2)cc1	SR leukemia	13 µM
CC1(C)CCC2(C(=O)O)CC[C@]3(C)C(=CCC4C5(C)CC[C@H](OC6OC(C(=O)O)C(O)C(OC7OC(CO)C(O)C(O)C7O)C6OC6OC(CO)C(O)C(O)C6O)C(C)(C)C5CCC43C)C2C1 (some centres undefined)	SR leukemia	> 100 µM
CCOP(=O)(OCC)/C(C#N)=C/c1cccn1N(C)C	SR leukemia	> 100 µM
COc1ccc(-n2c3c(c4c(CN(C)C)c(O)ccc42)C(=O)c2ccccc2C3=O)cc1	SR leukemia	6.84 µM
CC(=O)Nc1ccc2oc(=O)c3ccccc3c2c1	SR leukemia	> 100 µM
COc1cc([C@@H]2c3cc4c(cc3[C@H](OC(C)=O)[C@H]3COC(=O)[C@H]23)OCO4)cc(OC)c1OC	SR leukemia	> 100 µM
COc1ccc(CCc2ccc(O)c(C(=O)O)c2)cc1OC	SR leukemia	> 100 µM
